- Tested on: E. multilocularis metacestodes
- experiment.notes: PGI assay: phosphoglucose isomerase release from damaged metacestodes
- Type: cell-based, Echinococcus multilocularis
- conditions.used: 10 μM, 5 days, single wells, relative to DB1127 (10 μM)
Catalogue of compounds with associated PGI (% of DB1127 at 10 uM)
endpoint: PGI (% of DB1127 at 10 uM)

compound	result
CC1CCN(Cc2c(O)ccc3cc(-c4nc5ccccc5s4)c(=O)oc23)CC1 [MMV009127]	0.35%
OC(Cn1nnc2ccccc21)Cn1c2ccc(Br)cc2c2cc(Br)ccc21 (stereo not shown) [MMV666025]	1.46%
COc1cccc(C2(C)Nc3ccccc3-c3nc4ccccc4n32)c1 (stereo not shown) [MMV396719]	6.50%
COCCNC(=O)c1ccc(OC2CCN(Cc3ccc(F)c(F)c3)CC2)c(Cl)c1 [MMV666072]	-116.21%
CN1C=C(c2ccc3ccccc3n2)C(c2c[nH]c3ccccc23)c2ccccc21 (stereo not shown) [MMV008160]	-2.32%
O=C(c1ccccc1F)N(Cc1ccc(Cl)cc1)c1ccccn1 [MMV665899]	-103.42%
CCOC(=O)c1cn(CC)c2cc(N(C)CCc3ccc(OC)c(OC)c3)c(F)cc2c1=O [MMV665977]	-67.06%
COc1ccc(Br)cc1C1Nc2ccc3ccccc3c2C2=C1C(=O)CC(c1ccccc1)C2 (stereo not shown) [MMV020885]	-45.01%
CN(C)c1ccc(C=Cc2nc(=O)c3ccccc3o2)cc1 [MMV006309]	24.63%
COc1ccc(C2N(C)c3ccccc3N2C)cc1 [MMV666075]	0.50%
COc1ccc(CCN2C(=O)c3[nH]nc(-c4cc(Cl)c(C)cc4O)c3C2c2ccccc2F)cc1 (stereo not shown) [MMV396717]	-12.02%
O=C(Nc1ccsc1C(=O)NC1CCCCC1)c1ccc(F)cc1 [MMV665939]	-15.17%
OC(CNC1CCCC1)Cn1c2ccccc2c2ccccc21 (stereo not shown) [MMV000848]	6.03%
CCOC(=O)c1cnc2ccc(Cl)cc2c1NCCCN(C)C [MMV006882]	9.75%
CCOc1ccccc1NC(=O)CN1CCN(C(=O)c2ccco2)CC1 [MMV007791]	-28.95%
CCCCOc1ccc(C(=O)Nc2cc(C)on2)cc1 [MMV007906]	-15.33%
Oc1ccccc1CN1CCC2(CCCN(Cc3ccccc3F)C2)C1 (stereo not shown) [MMV666116]	-7.59%
CCN1CCN(c2c(C(=O)c3ccccc3)cnc3cc(OC)c(OC)cc23)CC1 [MMV008474]	-15.22%
CC1CC2=C(CC1CNCCCN(C)C)C(C)(C)CCC2 (stereo not shown) [MMV665830]	-3.36%
COc1ccc(NC(=O)C2c3ccccc3C(=O)N(CC(C)C)C2c2cccs2)cc1 (stereo not shown) [MMV000662]	-25.19%
O=C(CSc1ccc2nnc(-c3cccc(F)c3)n2n1)Nc1ccc2c(c1)OCO2 [MMV665918]	-24.34%
OC1CCCCC1C1(NC(=S)Nc2ccccc2)CCCCC1 (stereo not shown) [MMV665980]	-9.51%
Cc1[nH]c(-c2ccc(F)cc2)cc1C(=O)NC1CCN(Cc2ccccc2)CC1 [MMV019738]	12.98%
COc1ccccc1NC1=C(N2CCCCC2)C(=O)c2ccccc2C1=O [MMV085203]	31.65%
CN(C)CCCNCc1ccc(-c2ccc(F)c(Cl)c2)o1.Cl [MMV020505]	-8.77%
COc1ccc(C(C)=O)cc1N1C(=O)C2C(C1=O)C1(c3ccccc3)C(=O)C2(c2ccccc2)C(c2ccc(C)cc2)=C1c1ccc(C)cc1 (stereo not shown) [MMV007695]	4.56%
COc1cc2c(cc1OC)C1=NNC(=O)C1=NC(C)(C)C2 [MMV084940]	-19.88%
COc1ccc(C2=C(c3ccc(OC)cc3)C3(c4ccccc4)C(=O)C2(c2ccccc2)C2C(=O)N(c4ccc(C)cc4)C(=O)C23)cc1 (stereo not shown) [MMV666101]	-51.33%
CCOc1ccc(-c2nonc2NC(=O)c2cccc(C)c2)cc1OCC [MMV665805]	-25.24%
COc1ccc(C(=O)C(CCC(CNC(C)(C)C)C(=O)c2ccc(OC)cc2)CNC(C)(C)C)cc1 (stereo not shown) [MMV007591]	-0.71%
FC(F)(F)c1ccc(Nc2nnnc3ccccc23)cc1 [MMV665935]	-27.43%
CCCCCCc1cc2cc(-c3csc(C=Cc4ccccc4)n3)c(=O)oc2cc1O [MMV666692]	-4.22%
COc1cc(C(=O)Nc2nc3c(cc4c5c(cccc53)CC4)s2)cc(OC)c1OC [MMV396665]	-11.85%
CCOC(=O)C1=C(C)N=c2sc(=Cc3ccccc3O)c(=O)n2C1c1ccc(OC)c2ccccc12 (stereo not shown) [MMV666604]	-9.67%
CC(=O)c1sc(NC(=O)Nc2ccc(C)cc2C)nc1C [MMV665894]	-2.69%
CCCC(c1nnnn1C1CCCCC1)N1CCN(C(=O)c2ccco2)CC1.Cl (stereo not shown) [MMV666093]	-0.54%
CCOC(=O)c1c[nH]c2c(CC)cccc2c1=O [MMV498479]	-7.93%
